Exercise: for every item that follows, state its recorded pIC50.
study_target: mouse 11β-HSD2 (Mus musculus, UniProt P51661)
Construct: the full-length cDNAs of human or marine 11β-HSD1 and 11β-HSD2 were isolated from the cDNA libraries; microsomal fraction
Sequence (P51661 whole entry): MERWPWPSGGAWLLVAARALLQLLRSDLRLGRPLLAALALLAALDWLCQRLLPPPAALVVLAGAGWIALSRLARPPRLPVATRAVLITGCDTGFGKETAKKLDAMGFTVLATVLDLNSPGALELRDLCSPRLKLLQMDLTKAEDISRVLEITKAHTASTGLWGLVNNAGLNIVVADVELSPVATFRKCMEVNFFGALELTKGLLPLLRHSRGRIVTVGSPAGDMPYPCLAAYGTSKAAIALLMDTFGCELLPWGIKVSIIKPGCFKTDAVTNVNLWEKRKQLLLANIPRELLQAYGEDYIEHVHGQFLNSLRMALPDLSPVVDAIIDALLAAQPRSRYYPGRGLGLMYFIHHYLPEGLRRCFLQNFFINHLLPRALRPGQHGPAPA
assay_comment: Inhibition of mouse 11β-HSD2, SPA with microsomes from transfected HEK-293 cells
condition_description: [3H]cortisol, NAD+, n = 2
pIC50: −log10 of the molar value.

Note to self: pIC50 of CC(C)=CCC[C@@H](C)[C@@H]1CC[C@]2(C)C3=C(CC[C@@]12C)[C@@]1(C)CC[C@H](O)C(C)(C)[C@@H]1CC3 with mouse 11β-HSD2 (Mus musculus, UniProt P51661) was < 3.00

Note to self: pIC50 of C=C(CC[C@](C)(O)[C@@H]1CC[C@]2(C)C3CCC4C(C)(C)[C@@H](O)CC[C@]4(C)C3CC[C@@]12C)C(C)C (stereo partly drawn) [Compound 1, Euphane-3β,20-dihydroxy-24-ene] with mouse 11β-HSD2 (Mus musculus, UniProt P51661) was < 3.00

Note to self: pIC50 of C=C(C)[C@@H](O)CC[C@@H](C)[C@@H]1CC[C@]2(C)C3=C(CC[C@@]12C)[C@@]1(C)CC[C@H](O)C(C)(C)C1CC3 (stereo partly drawn) [Compound 5, (24R)-Eupha-8,25-diene-3β,24-diol] with mouse 11β-HSD2 (Mus musculus, UniProt P51661) was < 3.00
